Kindly supply the reported recombinant barcode read abundance (log10) values for the records listed here.
Experiment: recombinant barcode read abundance after kanamycin selection (control-corrected) (log10(CPM+1)); higher = more efficient recombination; sequences stand for … in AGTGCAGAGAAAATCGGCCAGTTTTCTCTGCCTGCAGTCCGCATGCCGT…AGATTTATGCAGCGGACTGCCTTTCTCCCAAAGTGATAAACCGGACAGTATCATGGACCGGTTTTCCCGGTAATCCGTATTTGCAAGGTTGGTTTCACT; site = the 11-nt target
Numbers only.

In [3]: df
Out[3]:
                               residuecodes  measvalue
0  TGGTTCGCTTGGGTTCTAACCTGTTGCCT (site TGGTTCGCTAG)       1.43
1  ACCAAATCTTGGGTTCTAACCTGTTGCTA (site ACCAAATCTTA)       0.23
2  TAGACTGCTTGGGTTCTAACCTGTTGCCT (site TAGCCTGCTAG)      0.224

Working through the 5 sequences below one at a time, give recombinant barcode read abundance (log10) for each.
1. AGGTCACCTTGGGTTCTAACCTGTTGCAT (site AGGTCACCTAC)
2. GACCGTCCTTGGGTTCTAACCTGTTGCGT (site GACCGTCCTAC)
3. CATTGGACTTGGGTTCTAACCTGTTGCTT (site AATTGGACTAA)
4. GTTCGTCCTTGGGTTCTAACCTGTTGCCA (site GTTCGTCCTTG)
5. GGACCTCCTTGGGTTCTAACCTGTTGCTT (site GGACCTCCTAG)

Result block:
1: 0.62; 2: 2.65; 3: 0.222; 4: 0.0879; 5: 1.27

Report recombinant barcode read abundance (log10) for each item below.
1. TATTAGCCTTGGGTTCTAACCTGTTGCCT (site TATTAGCCTAG)
2. GAAAACACTTGGGTTCTAACCTGTTGCCT (site GAAGAGACTAG)

Result block:
0.123
0.0433

---

I'd appreciate it if you could supply recombinant UMI read abundance (log10) values for the items below.
Assay: recombinant UMI read abundance after kanamycin selection (control-corrected) (log10(CPM+1)); higher = more efficient recombination; extreme values may be limits of the assay; sequences stand for … in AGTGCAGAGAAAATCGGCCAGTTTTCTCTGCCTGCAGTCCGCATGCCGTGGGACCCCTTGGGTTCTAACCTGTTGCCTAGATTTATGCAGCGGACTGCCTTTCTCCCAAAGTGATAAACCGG…AGGTTGGTTTCACT; site = the 11-nt donor
Answers are plain numbers.

// each listed sequence needs a value for recombinant UMI read abundance (log10)
1. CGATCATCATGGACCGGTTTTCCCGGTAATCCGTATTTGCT (site CTATCATCTAG)
2. CCAACTTCATGGACCGGTTTTCCCGGTAATCCGTATTTGTA (site CCAACTTCTTA)
3. CCCATATCATGGACCGGTTTTCCCGGTAATCCGTATTTGCC (site CCCATATCTGT)
4. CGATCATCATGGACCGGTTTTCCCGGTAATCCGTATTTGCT (site CGATCTTCTTG)
5. GTATTCGCATGGACCGGTTTTCCCGGTAATCCGTATTTGCG (site GTACTCGCTCG)

Result block:
1: 1.22; 2: 0.301; 3: 0.454; 4: 0; 5: 0.406

Value sought for every listed sequence: recombinant UMI read abundance (log10).
1. CACTCCTCATGGACCGGTTTTCCCGGTAATCCGTATTTGCC (site CACTGCTCTGG)
2. GGTACGTCATGGACCGGTTTTCCCGGTAATCCGTATTTGTA (site GGTACGTCTCA)

Result block:
[0.00619, 0.00737]

Please look at the items below and tell me recombinant UMI read abundance (log10) for each one, in order.
1. GCTTGTTCATGGACCGGTTTTCCCGGTAATCCGTATTTGAA (site GCTTGTTCTTT)
2. GGTCCAACATGGACCGGTTTTCCCGGTAATCCGTATTTGTA (site GGGCCAACTTA)

Result block:
1. 0.489
2. 0.00345

# batch size: 8; output recombinant UMI read abundance (log10) per entry
1. AACCGTCCATGGACCGGTTTTCCCGGTAATCCGTATTTGAT (site AACCGTCCTGT)
2. CGATCCACATGGACCGGTTTTCCCGGTAATCCGTATTTGCT (site CGATCCACTAG)
3. GCCACGCCATGGACCGGTTTTCCCGGTAATCCGTATTTGGA (site GCCACGCCTTC)
4. CGGACTCCATGGACCGGTTTTCCCGGTAATCCGTATTTGTT (site CGGAATCCTAA)
5. CCCCACACATGGACCGGTTTTCCCGGTAATCCGTATTTGTA (site CCCCATACTTA)
6. ACGAAAACATGGACCGGTTTTCCCGGTAATCCGTATTTGCT (site TCGAAAACTAG)
7. CCAGGTTCATGGACCGGTTTTCCCGGTAATCCGTATTTGAT (site CCAGGTGCTAT)
8. ACGAGTGCATGGACCGGTTTTCCCGGTAATCCGTATTTGGT (site ACTAGTGCTAC)

Result block:
1: 0; 2: 2.75; 3: 0.0144; 4: 0.00938; 5: 0.0127; 6: 0; 7: 0; 8: 1.22

Query block: I am curious: what recombinant UMI read abundance (log10) value has been reported for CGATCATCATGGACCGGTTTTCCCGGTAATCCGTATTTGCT (site CGTACATCTAG) ?
Result block: 1.61
